Hey, just so you know, these numbers are from patent US7365082B2.

Test system: tobacco budworm (Heliothis virescens [Fabricius])
Experiment: surface-treated diet test against tobacco budworm
Format: in vivo
Conditions: 0.25 millimoles of candidate insecticide on the surface of the diet; second instar larvae; five-day exposure; compared to the total number of insects infested
readout_name: Percent Mortality

>>> obs_value("CCn1nnc(-c2ccc(CN3CCC(C(=Cc4ccc(OC(F)(F)F)cc4)c4ccc(Cl)cc4)CC3)cc2)n1")
"100%"
>>> obs_value("[O-][N+]1(Cc2ccc(Oc3ncccn3)cc2)CCN(C(c2ccc(Cl)cc2)c2ccc(Cl)cc2)CC1")
"0%"
>>> obs_value("Cn1nnc(-c2ccc(CN3CCC(C(=NNC(=O)c4ccc(OC(F)(F)F)cc4)c4ccc(OC(F)(F)F)cc4)CC3)cc2)n1")
"100%"
>>> obs_value("CCn1nnc(-c2ccc(CN3CCC(/C(=N\\NC(=O)c4ccc(OC(F)(F)F)cc4)c4ccc(OC(F)(F)F)cc4)CC3)cc2)n1")
"100%"
>>> obs_value("CCn1nnc(-c2ccc(CN3CCC(C(=NNc4cccc(C(F)(F)F)c4)c4ccc(OC(F)(F)F)cc4)CC3)cc2)n1")
"100%"
>>> obs_value("CC(C)NN=C(c1ccc(C(F)(F)F)cc1)C1CCN(Cc2ccc(-c3nnn(C)n3)cc2)CC1")
"0%"
>>> obs_value("Cn1nnc(-c2ccc(CN3CCC(C(=O)c4ccc(OC(F)(F)F)cc4)CC3)cc2)n1")
"100%"
>>> obs_value("CCn1nnc(-c2ccc(CN3CCC(C(=NNCc4ccc(C(F)(F)F)cc4)c4ccc(OC(F)(F)F)cc4)CC3)cc2)n1")
"100%"
>>> obs_value("[O-][N+]1(Cc2ccc(Oc3ccccn3)cc2)CCN(C(c2ccc(C(F)(F)F)cc2)c2ccc(C(F)(F)F)cc2)CC1")
"100%"
>>> obs_value("Cc1ccc(C(=O)NN=C(c2ccc(OC(F)(F)F)cc2)C2CCN(Cc3ccc(-c4nnn(C)n4)cc3)CC2)cc1")
"100%"
>>> obs_value("CC(C)OC(=O)Nc1ccc(C[N+]2([O-])CCN(C(c3ccc(C(F)(F)F)cc3)c3ccc(C(F)(F)F)cc3)CC2)cc1")
"100%"
>>> obs_value("CCn1nnc(-c2ccc(CN3CCC(C(=NNc4ccccc4C(F)(F)F)c4ccc(OC(F)(F)F)cc4)CC3)cc2)n1")
"0%"
>>> obs_value("Cn1nnc(-c2ccc(CN3CCC(C(=NNC(=O)c4cccc(F)c4)c4ccc(OC(F)(F)F)cc4)CC3)cc2)n1")
"67%"
>>> obs_value("O=C(NN=C(c1ccc(OC(F)(F)F)cc1)C1CCN(Cc2ccc(Oc3ccccn3)cc2)CC1)c1ccc(Cl)cc1")
"50%"
>>> obs_value("CCn1nnc(-c2ccc(CN3CCC(C(=NNc4ccc(S(N)(=O)=O)cc4)c4ccc(OC(F)(F)F)cc4)CC3)cc2)n1")
"100%"
>>> obs_value("CCn1nnc(-c2ccc(CN3CCC(C(=NNc4ccc(C)cc4)c4ccc(OC(F)(F)F)cc4)CC3)cc2)n1")
"100%"
>>> obs_value("Cn1nnc(-c2ccc(CN3CCC(C(=NNC(=O)c4ccc(Cl)cc4)c4ccc(OC(F)(F)F)cc4)CC3)cc2)n1")
"100%"
>>> obs_value("CCn1nnc(-c2ccc(CN3CCC(C(=NNc4ccc(OC)cc4)c4ccc(OC(F)(F)F)cc4)CC3)cc2)n1")
"100%"
>>> obs_value("Cn1nnc(-c2ccc(CN3CCC(C(=NNC(=O)c4ccc(I)cc4)c4ccc(OC(F)(F)F)cc4)CC3)cc2)n1")
"100%"
>>> obs_value("O=C(c1ccc(OC(F)(F)F)cc1)C1CCN(Cc2ccc(-c3ccccn3)cc2)CC1")
"100%"
>>> obs_value("Clc1ccc(C(c2ccc(Cl)cc2)N2CCN(Cc3ccc(Oc4ncccn4)cc3)CC2)cc1")
"100%"
>>> obs_value("COc1ccc(CN2CCC(C(=NNc3ccc(OC(F)(F)F)cc3)c3ccc(OC(F)(F)F)cc3)CC2)cc1")
"100%"
>>> obs_value("CCn1nnc(-c2ccc(CN3CCC(C(=NNc4ccc(C(F)(F)F)cc4)c4ccc(C(F)(F)F)cc4)CC3)cc2)n1")
"100%"
>>> obs_value("Cn1nnc(-c2ccc(CN3CCC(C(=NNc4ccc(OC(F)(F)F)cc4)c4ccc(OC(F)(F)F)cc4)CC3)cc2)n1")
"100%"
